B1: TMEM106C (parent)
chain: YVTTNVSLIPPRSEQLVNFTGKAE

# Variants of: B1
# Assay procedure: protein stability index of a GFP-peptide fusion (GPS, HEK-293T) (PSI 1-6); higher = more stable;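 further: lentivirally expressed fusions sorted by FACS into six bins by GFP to DsRed ratio, PSI derived from sequencing read proportions per bin multiplied by bin number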
# Test parameters: c terminus: a fixed tail appended
Readout type: protein stability index
// no unit string in output, number only

{"Chain": "YVTTNWSLIPPRSEQLVNFTGKAE", "protein stability index": 2.57}
{"Chain": "YVTTNVSLIPPRSEQLVDFTGKAE", "protein stability index": 3.25}
{"Chain": "YVTTNVSLIPPRSYQLVNFTGKAE", "protein stability index": 2.19}
{"Chain": "YVTTNVSLIPPRSMQLVNFTGKAE", "protein stability index": 2.26}
{"Chain": "YVTTNVSLIPPRSEQLVNWTGKAE", "protein stability index": 2.33}
{"Chain": "YVTTNVSLIPPRSEQLVNFTGQAE", "protein stability index": 1.53}

Prompt: Find the recorded protein stability index belonging to YVTFNVSLIPPRSEQLVNFTGKAE and report it.
Completion: 1.43

Prompt: Find the recorded protein stability index belonging to YVTTNVSLIPPRSEQLQNFTGKAE and report it.
Completion: 3.85

meta.source: the supplement of paper PMC10567573
